Measured CL free accompanies every entry in the list below.
Procedure text: Intrinsic clearance unbound in human liver microsomes at 1 uM […] by LC-MS/MS analysis
Assay type: ADME, Microsome

Smiles data | CL free
Cc1cc(CNC(=O)Nc2cc(OCCO)nc(C(F)(F)F)c2)nnc1-c1cn(C)nc1C(F)(F)F | < 23.3 mL/min/kg
CCOc1cc(NC(=O)NCc2cc(C)c(-c3cn(C)nc3C(F)(F)F)nn2)cc(C)n1 | < 15 mL/min/kg
Cc1cc(CNC(=O)Nc2cc(Cl)nc(OCC(F)F)c2)nnc1-c1cn(C)nc1C(F)(F)F | < 50 mL/min/kg
CCOc1cc(NC(=O)NCc2cc(C)c(-c3cn(C)nc3C(F)(F)F)nn2)cc(C(F)(F)F)n1 | < 38.3 mL/min/kg
COCCOc1cc(NC(=O)NCc2cc(C)c(-c3cn(C)nc3C(F)(F)F)nn2)cc(Cl)n1 | < 23.3 mL/min/kg

====

Measured pIC50 accompanies every entry in the list below.
Assay target: Sphingosine 1-phosphate receptor 2 (Homo sapiens, UniProt O95136)
Sequence (O95136 whole entry): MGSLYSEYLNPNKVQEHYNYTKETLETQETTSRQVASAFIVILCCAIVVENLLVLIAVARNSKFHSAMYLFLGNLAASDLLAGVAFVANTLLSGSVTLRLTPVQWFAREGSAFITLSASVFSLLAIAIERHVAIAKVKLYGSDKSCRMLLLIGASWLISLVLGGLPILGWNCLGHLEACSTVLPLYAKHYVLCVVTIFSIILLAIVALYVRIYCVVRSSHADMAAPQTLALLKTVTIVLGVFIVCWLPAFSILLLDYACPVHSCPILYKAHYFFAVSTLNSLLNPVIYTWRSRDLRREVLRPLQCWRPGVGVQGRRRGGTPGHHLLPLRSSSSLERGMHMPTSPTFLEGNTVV
Procedure text: Antagonist activity at human S1P2 receptor expressed in CHO cells assessed as EC80 S1P-induced calcium flux measured for 3 mins by fluorescence assay
Type: functional, cell-based
pIC50: −log10 of the molar value.

Compound | pIC50
Cc1cc(CNC(=O)c2cc(Cl)nc(Cl)c2)ncc1-c1cn(C)nc1C | < 4.72
Cc1cc(CNC(=O)Nc2cc(OCC(O)CO)nc(C(F)(F)F)c2)nnc1-c1cn(C)nc1C(F)(F)F (stereo not given) | < 5.18
Cc1cc(NNC(=O)Nc2cc(Cl)nc(Cl)c2)nc(C(=O)N(C)C2CC2)c1 | < 4.70
CCOc1cc(NC(=O)NCc2cc(C)c(N3CC(C)OC(C)C3)cn2)cc(Cl)n1 (stereo not given) | 7.80
Cc1cc(C#N)nc(NNC(=O)Nc2cc(Cl)nc(Cl)c2)c1 | < 5.18

Values from ChEMBL document CHEMBL4834436
